molecular target: Cannabinoid receptor 1 (Homo sapiens); assay: Agonist activity at human CB1 receptor expressed in CHO-K1 cells assessed as […] incubated for 20 mins measured after 60 mins addition of cAMP detect reagent by HTRF analysis
Sequence (P21554 whole entry): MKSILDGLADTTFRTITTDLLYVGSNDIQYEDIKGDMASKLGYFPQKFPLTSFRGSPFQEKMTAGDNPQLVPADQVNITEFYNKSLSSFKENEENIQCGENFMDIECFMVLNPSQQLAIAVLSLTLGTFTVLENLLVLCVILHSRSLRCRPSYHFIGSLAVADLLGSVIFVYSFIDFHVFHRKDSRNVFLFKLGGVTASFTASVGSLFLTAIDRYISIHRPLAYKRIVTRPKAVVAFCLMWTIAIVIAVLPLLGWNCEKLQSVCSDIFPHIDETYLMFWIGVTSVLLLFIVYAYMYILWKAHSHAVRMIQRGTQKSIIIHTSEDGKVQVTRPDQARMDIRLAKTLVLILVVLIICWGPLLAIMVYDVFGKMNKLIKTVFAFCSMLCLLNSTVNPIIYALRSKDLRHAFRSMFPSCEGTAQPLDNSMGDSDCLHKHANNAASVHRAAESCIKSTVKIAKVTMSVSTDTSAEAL
Assignment: determine reported EC50 for the given compounds.
Write the value in nM as a bare number.

I am curious: what EC50 value has been reported for CC(C)(C)NC(=O)c1c2c(nn1-c1c[n+]([O-])ccn1)C1CCC(C2)O1 (centres undefined) ?
7970

Consider next the compound O=C(NC12CC3CC(CC1C3)C2)c1nn(-c2ccc(F)cc2F)c2c1CC1CCC2O1 (centres undefined) in the same way.
0.08

Consider next the compound O=C(NC12CCC(CC1)CC2)c1nn(-c2c[n+]([O-])ccn2)c2c1CC1CCC2O1 (centres undefined) in the same way.
0.02

Consider next the compound O=C(NC12CC3CC(CC1C3)C2)c1nn(-c2cnccn2)c2c1CC1CCC2O1 (centres undefined) in the same way.
0.02

Consider next the compound CC(C)(C)NC(=O)c1c2c(nn1-c1cnccn1)CC1CCC2O1 (centres undefined) in the same way.
1650

Consider next the compound CC(C)(C)[C@@H](CO)NC(=O)c1nn(-c2cnccn2)c2c1C[C@H]1CCC2O1 (single isomer, unassigned) in the same way.
0.09

Consider next the compound CC(C)(C)c1nnc(-c2nn(-c3c[n+]([O-])ccn3)c3c2CC2CCC3O2)s1 (centres undefined) in the same way.
0.06

Consider next the compound CC(C)(C)NC(=O)c1c2c(nn1-c1c[n+]([O-])ccn1)CC1CCC2O1 (centres undefined) in the same way.
2670

Consider next the compound CC(C)(C)NC(=O)c1c2c(nn1-c1ccc(F)cc1F)C1CCC(C2)O1 (centres undefined) in the same way.
2980

Consider next the compound `CC(C)(C)[C@@H](CO)NC(=O)c1nn(-c2cnccn2)c2c1C[C@@H]1CC[C@H]2O1` in the same way.
0.56

Consider next the compound O=C(NC1(C(F)(F)F)CCC1)c1nn(-c2cnccn2)c2c1CC1CCC2O1 (centres undefined) in the same way.
0.04

Consider next the compound CCC(C)(C)c1noc(-c2nn(-c3cnccn3)c3c2CC2CCC3O2)n1 (centres undefined) in the same way.
0.04

Consider next the compound CC(C)(C)NC(=O)c1nn(-c2ccc(F)cc2F)c2c1CC1CCC2O1 (centres undefined) in the same way.
1.2

Consider next the compound O=C(NC12CC(C1)C2)c1nn(-c2c[n+]([O-])ccn2)c2c1CC1CCC2O1 (centres undefined) in the same way.
0.05
